- Tested on: SR
- protocol: NCI tumour cell line growth inhibition, 48 h
The source made the active and inactive calls. Cut-off read from the data, not from the text of the source: active = GI50 up to about 1.1 µM and inactive = higher.
Just give me one of these, please: active, inactive

COc1ccc(-c2cc(-c3cc(OC)c(OC)c(OC)c3)cc(-c3cc4ccccc4oc3=O)n2)cc1: inactive
O=[N+]([O-])c1ccc(C2Nn3c(nnc3-c3cccc([N+](=O)[O-])c3)S2)cc1 (stereo not drawn): inactive
O=C1C=CC2=[N+]([O-])C(c3ccccc3)(c3ccccc3)/C(=N\c3ccccc3)C2=C1: active

# evaluate next
Dear all, I need the recorded test outcome for "N=C(N)N/N=C/c1ccc(O)c(C(=O)O)c1" , thank you. inactive

* * *

- System: HCC 2998
- protocol: NCI tumour cell line growth inhibition, 48 h
Calls of active or inactive are those of the source. No stated cut-off is given here; in the data, active = GI50 up to about 1.1 µM and inactive = higher.
Documented GI50 across a set of compounds

NC(=O)NNC(=O)NC12CC3CC(CC(C3)C1)C2: > 100 µM (inactive)
C=C(C)[C@@H]1CCC2=C[C@H](CC(C)=CC3=CC(C)=C(O3)[C@@H]1OC)OC2=O: > 100 µM (inactive)
CC1CC[P+](c2ccccc2)(c2ccccc2)CC1: 20.8 µM (inactive)

response.value for "Cc1ccc(NC(=O)CC(=O)n2nc(-c3ccccc3)c(/N=N/c3ccccc3Cl)c2-c2ccccc2)cc1" (field: GI50) = > 10 µM (inactive)

Sample CC1(C)CCC2(C(=O)OC3OC(CO)C(O)C(O)C3O)CCC3(C)C(=CCC4C5(C)CCC(OC6OC(CO)C(O)C(O)C6O)C(C)(C)C5CCC43C)C2C1 (stereo not drawn) ; GI50 observed: 4.01 µM (inactive)

Sample "O=C1Cc2c([nH]c3ccc(C(=O)O)cc23)-c2ccccc2N1" ; GI50 observed: > 100 µM (inactive)

Item: "CCOC(=O)Cc1nc2sc(S(N)(=O)=O)nn2c1Br" | GI50: 22.2 µM (inactive)

The reported GI50 of the compound CC(C)/C=N\N1C(N)=C(C#N)C(C#N)(C#N)C1C(C)C (stereo not drawn) was 34.4 µM (inactive)

Just so you know, measured GI50 for "COc1cc(/C=C/C(=O)c2c([O-])on[n+]2-c2ccccc2)ccc1O" came out at 2.27 µM (inactive)

// "O=C(CSc1nc(-c2ccccc2)c(-c2ccccc2)[nH]1)NNC(=S)Nc1ccccc1" : GI50 value = > 100 µM (inactive)

These entries and their values trace back to ChEMBL document CHEMBL1201862.
